All figures here come from PubChem BioAssay (EPA / NIEHS).

# Read-out: Glutathione S-transferase M3 (GSTM3), GSTM3 (gene 2947)
# RUN_DESCRIPTION: LTEA_HepaRG_GSTM3: Life Technologies and Expression Analysis (LTEA) Assay for Glutathione S-transferase M3 (GSTM3) using HepaRG (AID 2283501)
# CONDITION_INFO: mRNA level, 48 h; actives raise or lower the signal
Calls of active or inactive are those of the source. Rule for the calls: active = hit-call score of the fitted dose curve at least 0.9, where 1 is the maximum; inactive = score below 0.9.
Respond with a class label; see 1.0 = active, 0.0 = inactive

Some solved entries appear below for comparison.
O=CCCCC=O
0.0
CCCCCCCCCCCC[N+](C)(C)C
1.0
O=C(O)Cn1c(=O)n(Cc2ccc(Br)cc2F)c(=O)c2ccc(Cl)cc21
0.0

# outcome recorded in this test, key = CCCCCCCCOc1ccc(C(=O)c2ccccc2)c(O)c1 0.0

# outcome recorded in this test, key = CCCCOC(=O)CC(CC(=O)OCCCC)(OC(C)=O)C(=O)OCCCC 0.0

# outcome recorded in this test, key = NCc1cccc(C2CCN(C(=O)c3ccc(C#Cc4ccccc4F)o3)CC2)c1 0.0

# outcome recorded in this test, key = CCN(CC)C(=O)c1cc(S(=O)(=O)Cc2ccccc2)c(N2CCC(c3ccccc3)CC2)cc1N(CC)CCN(C)C 0.0

# outcome recorded in this test, key = Cc1cccc2ccccc12 0.0

# outcome recorded in this test, key = CC/C(=C(/CC)c1ccc(O)cc1)c1ccc(O)cc1 0.0

# outcome recorded in this test, key = O=C(O)c1ccccc1-n1cc(C(=O)O)c(=O)c2cc(Nc3c(F)cc(F)cc3Cl)c(Cl)cc21 0.0

# outcome recorded in this test, key = COc1ccc2cc(S(=O)(=O)N[C@H](CC(=O)N[C@H](Cc3ccc(CN4[C@H](C)CCC[C@@H]4C)cc3)C(=O)N(C)C(C)C)c3ccc4c(c3)OCO4)ccc2c1 1.0

# outcome recorded in this test, key = CCN(Cc1cccc(S(=O)(=O)O)c1)c1ccc(C(=C2C=CC(=[N+](CC)Cc3cccc(S(=O)(=O)O)c3)C=C2)c2ccccc2S(=O)(=O)[O-])cc1 0.0

# outcome recorded in this test, key = O=C(Nc1ccc(Cl)cc1)Nc1ccc(Cl)c(Cl)c1 0.0

# outcome recorded in this test, key = O=C=NCCCCCCN=C=O 0.0

# outcome recorded in this test, key = CC(C)(C)c1cc(/C=C2\SC(N)=NC2=O)cc(C(C)(C)C)c1O 0.0

# outcome recorded in this test, key = Oc1ccc2ccccc2c1 0.0

# outcome recorded in this test, key = CCCCCCCCCC(=O)O 0.0

# outcome recorded in this test, key = CCN(Cc1cccnc1)C(=O)c1cccc(Cl)c1[C@]1(C)C(=O)N(Cc2ccc(OC)cc2OC)c2ccc(Cl)cc21 0.0
